Sourced from ChEMBL document CHEMBL1126467

- system.name: Thromboxane-A synthase (Homo sapiens)
- Sequence (P24557 whole entry): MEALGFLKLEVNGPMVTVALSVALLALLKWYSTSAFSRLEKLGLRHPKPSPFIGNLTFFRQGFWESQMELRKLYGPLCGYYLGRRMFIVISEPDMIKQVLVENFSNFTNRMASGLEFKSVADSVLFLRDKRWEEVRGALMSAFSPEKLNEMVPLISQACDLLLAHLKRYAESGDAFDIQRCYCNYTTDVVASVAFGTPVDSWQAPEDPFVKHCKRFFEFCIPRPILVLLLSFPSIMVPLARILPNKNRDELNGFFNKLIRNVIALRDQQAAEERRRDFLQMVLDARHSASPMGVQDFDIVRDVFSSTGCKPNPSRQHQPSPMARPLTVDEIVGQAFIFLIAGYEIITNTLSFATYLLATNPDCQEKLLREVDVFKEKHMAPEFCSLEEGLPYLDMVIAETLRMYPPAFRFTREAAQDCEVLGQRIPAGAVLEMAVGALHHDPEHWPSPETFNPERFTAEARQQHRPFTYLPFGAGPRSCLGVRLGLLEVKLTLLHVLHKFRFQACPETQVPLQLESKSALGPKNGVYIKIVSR
- experimental.protocol: Human microsomal Thromboxane synthase inhibition was determined by inhibiting TXB2 formation from [14C]- labelled arachidonic acid
measurement.label: IC50 (nM)
Give just the number in nM; leave the unit off.

IN: // fetch IC50 given entry O=C(O)CC1CCCc2c1n(Cc1cccc(OCCCCc3cccnc3)c1)c1ccc(F)cc21 (stereo not drawn)
OUT: 100

IN: // fetch IC50 given entry O=C(O)CC1CCCc2c1n(Cc1cccc(OCCCCCc3cccnc3)c1)c1ccc(F)cc21 (stereo not drawn)
OUT: 300

IN: // fetch IC50 given entry O=C(O)CC1CCCc2c1n(Cc1cccc(OCCCC#Cc3cccnc3)c1)c1ccc(F)cc21 (stereo not drawn)
OUT: 50

IN: // fetch IC50 given entry O=C(O)CC1CCCc2c1n(Cc1cccc(OCCCCC#Cc3cccnc3)c1)c1ccc(F)cc21 (stereo not drawn)
OUT: 40

IN: // fetch IC50 given entry O=C(O)CC1CCCc2c1n(Cc1cccc(OCCC/C=C\c3cccnc3)c1)c1ccc(F)cc21 (stereo not drawn)
OUT: 200

IN: // fetch IC50 given entry O=C(O)CC1CCCc2c1n(Cc1cccc(CCCCCc3cccnc3)c1)c1ccc(F)cc21 (stereo not drawn)
OUT: 500

IN: // fetch IC50 given entry O=C(O)CC1CCCc2c1n(Cc1ccc(OCCCCC#Cc3cccnc3)cc1)c1ccc(F)cc21 (stereo not drawn)
OUT: 400

IN: // fetch IC50 given entry O=C(O)CC1CCCc2c1n(Cc1ccc(OCCCC#Cc3cccnc3)cc1)c1ccc(F)cc21 (stereo not drawn)
OUT: 600

---

- system.name: Thromboxane A2 receptor (Homo sapiens)
- Sequence (P21731 whole entry): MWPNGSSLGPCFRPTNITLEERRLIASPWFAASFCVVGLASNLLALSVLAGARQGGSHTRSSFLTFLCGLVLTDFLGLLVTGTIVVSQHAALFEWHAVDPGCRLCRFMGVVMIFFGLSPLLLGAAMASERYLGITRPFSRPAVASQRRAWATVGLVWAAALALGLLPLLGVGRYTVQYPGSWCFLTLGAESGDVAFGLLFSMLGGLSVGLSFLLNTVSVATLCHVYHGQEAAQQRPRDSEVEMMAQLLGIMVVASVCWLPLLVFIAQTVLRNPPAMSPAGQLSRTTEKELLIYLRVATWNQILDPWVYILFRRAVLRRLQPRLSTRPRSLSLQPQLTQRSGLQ
- experimental.protocol: Tested for thromboxane antagonist potency (pA2) against […] induced platelet aggregation using human platelet rich plasma
- Format: functional, cell-free
- reported.conditions: read-out: pA2 (converted)
// label = 1 (yes) if Kb is not less than 600 nM, otherwise 0 (no)

IN: Quick check: does O=C(O)CC1CCCc2c1n(Cc1cccc(OCCCCC#Cc3cccnc3)c1)c1ccc(F)cc21 (stereo not given) have Kb greater than or equal to 600 nM?
OUT: 1 (yes)

IN: Quick check: does O=C(O)CC1CCCc2c1n(Cc1cccc(OCCCC#Cc3cccnc3)c1)c1ccc(F)cc21 (stereo not given) have Kb greater than or equal to 600 nM?
OUT: 1 (yes)

IN: Quick check: does O=C(O)CC1CCCc2c1n(Cc1cccc(OCCC/C=C\c3cccnc3)c1)c1ccc(F)cc21 (stereo not given) have Kb greater than or equal to 600 nM?
OUT: 1 (yes)

IN: Quick check: does O=C(O)CC1CCCc2c1n(Cc1cccc(OCCCCCc3cccnc3)c1)c1ccc(F)cc21 (stereo not given) have Kb greater than or equal to 600 nM?
OUT: 1 (yes)

IN: Quick check: does O=C(O)CC1CCCc2c1n(Cc1ccc(Cl)cc1)c1ccc(F)cc21 (stereo not given) have Kb greater than or equal to 600 nM?
OUT: 0 (no)

IN: Quick check: does O=C(O)CC1CCCc2c1n(Cc1ccc(OCCCC#Cc3cccnc3)cc1)c1ccc(F)cc21 (stereo not given) have Kb greater than or equal to 600 nM?
OUT: 0 (no)

IN: Quick check: does O=C(O)CC1CCCc2c1n(Cc1cccnc1)c1ccc(F)cc21 (stereo not given) have Kb greater than or equal to 600 nM?
OUT: 1 (yes)

IN: Quick check: does O=C(O)CC1CCCc2c1n(Cc1ccc(OCCCCC#Cc3cccnc3)cc1)c1ccc(F)cc21 (stereo not given) have Kb greater than or equal to 600 nM?
OUT: 0 (no)

IN: Quick check: does O=C(O)CC1CCCc2c1n(Cc1cccc(OCCCCc3cccnc3)c1)c1ccc(F)cc21 (stereo not given) have Kb greater than or equal to 600 nM?
OUT: 0 (no)

IN: Quick check: does O=C(O)CC1CCCc2c1n(Cc1cccc(CCCCCc3cccnc3)c1)c1ccc(F)cc21 (stereo not given) have Kb greater than or equal to 600 nM?
OUT: 1 (yes)
